sequences and their reported PBM binding z-score
# Test system: RXRa DBDmut IVT, anti-RXR (DBD mutation: RXRa K156A/R161A, NR concentration 90 nM)
# protocol_summary: PBM binding z-score (relative to random genomic background probes); higher = stronger binding; sequences stand for … in GC…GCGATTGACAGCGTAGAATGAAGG
Response field accepts a number only; no unit should be typed.

For orientation, consider the following solved cases.
> print(dat)
                             seq.text                              study.target  observed.measurement
1  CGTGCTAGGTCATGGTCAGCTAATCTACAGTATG  RXRa DBDmut IVT, anti-RXR (DBD mutation: RXRa K156A/R161A, NR concentration 90 nM)                  1.87
2  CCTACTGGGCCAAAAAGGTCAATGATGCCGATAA  RXRa DBDmut IVT, anti-RXR (DBD mutation: RXRa K156A/R161A, NR concentration 90 nM)               -0.0473
3  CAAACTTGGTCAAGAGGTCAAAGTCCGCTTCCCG  RXRa DBDmut IVT, anti-RXR (DBD mutation: RXRa K156A/R161A, NR concentration 90 nM)                  2.03
4  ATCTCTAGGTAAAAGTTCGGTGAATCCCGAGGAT  RXRa DBDmut IVT, anti-RXR (DBD mutation: RXRa K156A/R161A, NR concentration 90 nM)                   0.2
5  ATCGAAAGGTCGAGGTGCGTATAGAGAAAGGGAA  RXRa DBDmut IVT, anti-RXR (DBD mutation: RXRa K156A/R161A, NR concentration 90 nM)                  0.96

Please examine the following record next.
Sample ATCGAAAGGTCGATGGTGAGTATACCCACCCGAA , system: RXRa DBDmut IVT, anti-RXR (DBD mutation: RXRa K156A/R161A, NR concentration 90 nM). Its PBM binding z-score is 0.438
